# Experimental details: NCI Yeast Anticancer Drug Screen. Data for the rad50 strain (AID 155);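 note: 0% = growth of vehicle-only cultures of the same strain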
# Condition: S. cerevisiae rad50 strain growth inhibition; at 50.0 µM; stronger effect = higher value
# Experimental: Growth inhibition of yeast strains with defined genetic alterations is measured as a screen for potential anti-cancer activity. Selected strains with alterations in DNA damage repair or cell cycle control were exposed to compounds and growth inhibition was measured relative to vehicle treated controls. The strain used in this assay is rad50
The panel holds about 79,000 compounds, 15% with a hit somewhere; the sample as a whole holds those more often.
Entries and their measured growth inhibition follow.
Measurement label: growth inhibition (%)

[
  {
    "Compound": "O=C(O)C1CC1(c1ccccc1)c1ccccc1 (stereo unspecified)",
    "Endpoint value": 18.6
  },
  {
    "Compound": "COC(=O)C(=O)C(C(=O)C(=O)Nc1ccccc1C(N)=O)c1nc2ccc(C(=O)c3ccccc3)cc2[nH]c1=O (stereo unspecified)",
    "Endpoint value": -3.9
  },
  {
    "Compound": "O=NN(CCCl)C(=O)NC1CCC(O)CC1 (stereo unspecified)",
    "Endpoint value": -16.9
  },
  {
    "Compound": "CCOP(=O)(OCC)C([O][Sb]([O]CC(C)Cl)[O]CC(C)Cl)c1ccc(OC)cc1 (stereo unspecified)",
    "Endpoint value": -41.9
  },
  {
    "Compound": "c1ccc(CCN(c2ccccc2)c2ccccc2)cc1",
    "Endpoint value": 21.1
  },
  {
    "Compound": "CC(C)CNC(=O)/C=C/c1ccc2c(c1)OCO2",
    "Endpoint value": 13.5
  },
  {
    "Compound": "Nn1c(=S)[nH]nc(/C=C/c2ccc3c(c2)OCO3)c1=O",
    "Endpoint value": 38.9
  },
  {
    "Compound": "COC(=O)C(C(=O)C(=O)Nc1ccc(C)cc1C)c1nc2ccc([N+](=O)[O-])cc2[nH]c1=O (stereo unspecified)",
    "Endpoint value": 9.05
  },
  {
    "Compound": "COc1ccc(C[N+](C)(C)N)cc1OC",
    "Endpoint value": -13.8
  },
  {
    "Compound": "Cc1cc2c(cc1C)[n+](=O)c(C(=O)CC(=O)C(=O)Nc1ccccc1C(C)C)c(C)n2[O-]",
    "Endpoint value": -26.4
  },
  {
    "Compound": "c1ccc2c(c1)C[N+]1(CCCCCC1)C2",
    "Endpoint value": 7
  }
]

====

# Experimental details: NCI Yeast Anticancer Drug Screen. Data for the mec2-1 strain (AID 157)
# Condition: S. cerevisiae mec2-1 strain, at 50.0 µM, stronger effect = higher value
The panel holds about 79,000 compounds, 15% with a hit somewhere; the sample as a whole holds those more often.
Measurement label: growth inhibition (%)

[
  {
    "Molecule": "O=C(N/N=C/c1cc(-c2ccccc2Cl)c(-c2ccccc2Cl)o1)c1ccncc1",
    "Endpoint value": 23.6
  },
  {
    "Molecule": "CCc1ccccc1NC(=O)Nc1ccc(C(=O)O)c(O)c1",
    "Endpoint value": 10.2
  },
  {
    "Molecule": "Cc1cc(=O)[nH]c(N/N=C/c2ccc(O)cc2)n1",
    "Endpoint value": -44.5
  },
  {
    "Molecule": "O=C1CC2(C(=O)N1CN(Cc1ccccc1)Cc1ccccc1)c1ccccc1-c1ccccc12",
    "Endpoint value": 2.1
  },
  {
    "Molecule": "CC12CC(=O)OC(C1)C(=O)c1ccccc12 (stereo unspecified)",
    "Endpoint value": 16.1
  },
  {
    "Molecule": "COC(=O)C(=[N+]=[N-])C(=O)c1cccc([N+](=O)[O-])c1",
    "Endpoint value": 15.5
  },
  {
    "Molecule": "COC(=O)c1c(C)cc(OC)c(C/C=C(\\C)CCCc2coc(C=C(C)C)c2)c1OC",
    "Endpoint value": 6.55
  },
  {
    "Molecule": "C[n+]1cccc2cc(Br)ccc21",
    "Endpoint value": -8.6
  },
  {
    "Molecule": "c1cc(OCC2CO2)ccc1OCC1CO1 (stereo unspecified)",
    "Endpoint value": 19.9
  },
  {
    "Molecule": "O=C(CC1C(=O)Nc2ccccc2S1=O)Nc1ccc(Cl)cc1 (stereo unspecified)",
    "Endpoint value": 38
  },
  {
    "Molecule": "CC/C=C(\\C)C1(CC)C(=O)NC(=O)N=C1N (stereo unspecified)",
    "Endpoint value": 3.55
  },
  {
    "Molecule": "O=C1CCSc2c(cnc3ccccc23)N1",
    "Endpoint value": -12.4
  },
  {
    "Molecule": "CCN(CC)CCOc1ccc(/C(C#N)=C/c2ccc(OCCN3CCCCC3)cc2)cc1",
    "Endpoint value": 20.9
  },
  {
    "Molecule": "COC(=O)c1nc2c3c(cccc3c1C(=O)OC)Nc1ccccc1-2",
    "Endpoint value": 9.65
  },
  {
    "Molecule": "c1cnn(C23C4C5C6C4C2C6C53)c1 (stereo unspecified)",
    "Endpoint value": -26.6
  },
  {
    "Molecule": "CCC1(CC)C(=O)C(CC)(CC)C1=O",
    "Endpoint value": 28.1
  },
  {
    "Molecule": "Nc1ccc([N+](=O)[O-])c(Cl)c1",
    "Endpoint value": -8.3
  },
  {
    "Molecule": "CN(CCSSCCN(C)/N=C/c1ccccc1)/N=C/c1ccccc1",
    "Endpoint value": -10
  },
  {
    "Molecule": "NNc1ncnc2ccc(Cl)cc12",
    "Endpoint value": -9.15
  },
  {
    "Molecule": "NC(=O)C(CC(=O)O)NC(=O)c1ccccc1 (stereo unspecified)",
    "Endpoint value": 1.15
  },
  {
    "Molecule": "C(=C\\P(c1ccccc1)c1ccccc1)/P(/C=C/P(c1ccccc1)c1ccccc1)c1ccccc1",
    "Endpoint value": -14.8
  },
  {
    "Molecule": "CCCCCCCCCCCCCCCC[N+](C)(C)Cc1ccccc1",
    "Endpoint value": 99
  },
  {
    "Molecule": "CCC(O)(Cc1ccc(OC)cc1)c1ccc(OC)cc1 (stereo unspecified)",
    "Endpoint value": -24.4
  },
  {
    "Molecule": "CC1(CCOCc2ccccc2)NC(=O)NC1=O (stereo unspecified)",
    "Endpoint value": -8.4
  },
  {
    "Molecule": "N#Cc1ccc2ccccc2c1",
    "Endpoint value": -7
  },
  {
    "Molecule": "O=C(O)C1C2CC(C(Br)C2Br)C1C(=O)O (stereo unspecified)",
    "Endpoint value": 0.75
  }
]

====

Entries and their measured growth inhibition follow.
# Experimental details: NCI Yeast Anticancer Drug Screen. Data for the sgs1 mgt1 strain (AID 161);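 note: 0% = growth of cultures given vehicle only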
# Condition: S. cerevisiae sgs1 mgt1 strain, at 50.0 µM, stronger effect = higher value
Compounds without any hit were thinned out: in the full panel of roughly 79,000, 15% have a hit.

[
  {
    "Molecule": "O=CNC1CCCCC1c1ccc(C2CCCCC2NC=O)cc1 (configuration not stated)",
    "growth inhibition, %": -2.35
  },
  {
    "Molecule": "CCc1ccc(COC(=O)NC)nc1",
    "growth inhibition, %": 4
  },
  {
    "Molecule": "CCCCCCC(C(=O)O)C(=O)O",
    "growth inhibition, %": 23.6
  },
  {
    "Molecule": "NC(=S)c1cccc(C(N)=S)n1",
    "growth inhibition, %": 23.9
  },
  {
    "Molecule": "N#CC(CN1CCOCC1)[N+](=O)[O-] (configuration not stated)",
    "growth inhibition, %": -14.2
  },
  {
    "Molecule": "Cc1ccc(/C(O)=C/C(=O)C(=O)NN=C(c2ccccc2)c2ccccc2)cc1",
    "growth inhibition, %": 26.8
  },
  {
    "Molecule": "COc1cccc(CSCC(=O)O)c1",
    "growth inhibition, %": -44.2
  },
  {
    "Molecule": "O=C(O)C(O)c1ccc(Cl)cc1Cl (configuration not stated)",
    "growth inhibition, %": 10.9
  },
  {
    "Molecule": "O=CC(C(=O)c1ccccc1[N+](=O)[O-])c1ccccc1 (configuration not stated)",
    "growth inhibition, %": 15.9
  },
  {
    "Molecule": "Cc1cc2nc3[nH]c(=O)c4c(n3c2cc1C)CCC4",
    "growth inhibition, %": 0.2
  },
  {
    "Molecule": "C[Si](C)(C)COC(N)=O",
    "growth inhibition, %": -12.4
  },
  {
    "Molecule": "CC(=O)O[C@H]1CC[C@]2(C)C3CC[C@]4(C)C([C@H](C)CCCC(C)C)CCC4[C@]3(/C=N/O)n3c(=O)n(-c4ccccc4)c(=O)n3[C@]2(/C=N\\O)C1 (some centres not stated)",
    "growth inhibition, %": 28.8
  }
]
